These data points were gathered from patent US20150307625A1.

# tested target: human activated Protein C (human, UniProt P04070 43-461)
# assay notes: cell-based or functional assay
readout type: Anti-aPC IC50 (nM), Amidolytic activity

Q. Using the record for C22J13 hIgG1 (antibody, V domains shown) VH: EVQLLESGGGLVQPGGSLRLSCAASGFTFSSNYMSWVRQAPGKGLEWVAVISYDGSNKYYADSVKGRFTISRDNSKNTLYLQMNSLRAEDTAMYYCALTGRSGWMRFPNWFDPWGQGTLVTVTS VL: QSVLTQPPSASGTPGQRVTISCSGSDSNIGSNAVNWYQQLPGTAPKLLIYDNNKRPSGVPDRFSGSKSGTSASLAISGLRSEDEADYYCSSYTSSNTVVFGGGTKLTVLG , report its Anti-aPC IC50 (nM), Amidolytic activity.
A. 27 nM
